- Test Name: TOR pathway GLN3 branch reporter MEP2-GFP changes – S. cerevisiae, multiplex flow cytometry, primary screen (AID 1867);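 also: median GFP channel fluorescence of barcode-gated MEP2-GFP cells measured by flow cytometry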
- Condition Description: S. cerevisiae MEP2-GFP strain, 3 h, at 10 µM, 100% means same as DMSO wells
Results filed as inconclusive are left out. The source made the active and inactive calls.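 The calls were made as follows: active = GFP response, as percent of the DMSO control, above the screen-wide mean plus 3 SD, about 139; inconclusive = no response measured because the compound's own fluorescence interfered; inactive = the rest.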
Outcomes you can answer with include only these: y = active, n = inactive

Input: State the result this test recorded for COc1ccc(C2NCCC3(O)CCCCC23)c(OC)c1OC (configuration not stated) .
Output: n

Input: State the result this test recorded for O=C(Nc1ccc(N2CCOCC2)cc1)c1ccc(-c2ccccc2[N+](=O)[O-])o1 .
Output: n

Input: State the result this test recorded for O=C(CN1C(=O)c2ccccc2C1=O)Nc1cccc([N+](=O)[O-])c1 .
Output: n

Input: State the result this test recorded for Cc1oc2cc(O)cc(O)c2c(=O)c1-c1ccc2c(c1)OCCCO2 .
Output: n

Input: State the result this test recorded for COC(=O)c1ccccc1NC(=O)c1ccc(COc2ccc3c(c2)CCC3)cc1 .
Output: n

Input: State the result this test recorded for CC(=O)[C@@H]1[C@@H](C(=O)c2ccc(C)cc2)[C@]2(C(=O)Nc3ccccc32)[C@H]2C=Cc3cc(F)ccc3N12 .
Output: n

Input: State the result this test recorded for COc1ccc(C2C(C#N)=C(N)Oc3cc(C)[nH]c(=O)c32)c(OC)c1OC (configuration not stated) .
Output: n

Input: State the result this test recorded for COc1cc(SC)ccc1C(=O)NC(C)C .
Output: n

Input: State the result this test recorded for CC1(C)CC(=O)C2=C(C1)c1c(ccc3ccccc13)NC2c1ccco1 (configuration not stated) .
Output: n

Input: State the result this test recorded for O=S(=O)(CCc1nc2ccccc2[nH]1)c1ccc(Cl)cc1 .
Output: n

Input: State the result this test recorded for CCn1cc(C(=O)O)c(=O)c2ccc(C)nc21 .
Output: n

Input: State the result this test recorded for O=C(NC1CCCCC1)N1CCc2[nH]c3ccccc3c2C1 .
Output: y

Input: State the result this test recorded for COc1ccc(C(=O)Nc2ccccc2C(=O)NC(Cc2c[nH]c3ccccc23)C(=O)O)cc1 (configuration not stated) .
Output: n

Input: State the result this test recorded for Cc1c(Cc2ccccc2)c(=O)oc2c(CN(C)C)c(O)c(Cl)cc12 .
Output: n

Input: State the result this test recorded for CCNC(=O)C12CCC(C)(C(=O)O1)C2(C)C (configuration not stated) .
Output: n

Input: State the result this test recorded for COc1cc(-c2cccs2)cc(=O)c2c(C)oc(C)c12 .
Output: n

Input: State the result this test recorded for CC12CC(c3ccccc3O1)C(C(=O)N1CCOCC1)C(=O)N2 (configuration not stated) .
Output: n

Input: State the result this test recorded for NC(N)=N/N=C/c1cccc(Cl)c1Cl .
Output: n

Input: State the result this test recorded for CC(C)OC(=O)C1C(=O)CC(C)(O)C(C(=O)OC(C)C)C1c1cccc(O)c1 (configuration not stated) .
Output: n

Input: State the result this test recorded for COc1ccc(-c2c3c(=O)n(C)c(=O)n(C)c3cn2C2CCCCC2)cc1 .
Output: n

Input: State the result this test recorded for CC(C)CCn1c(N2CCc3ccccc3C2)nc2c1c(=O)[nH]c(=O)n2C .
Output: n

Input: State the result this test recorded for O=Cc1ccc(OC(=O)c2cccnc2)cc1 .
Output: n
